Reference source for all entries: ChEMBL document CHEMBL4312015

Species: Homo sapiens
Experiment: Selectivity ratio of IC50 for wildtype EGFR (unknown origin) to IC50 for EGFR T790M/L858R double mutant (unknown origin) by mobility shift assay based ELISA
Reported property: Ratio IC50

1. CC/C=C\C(=O)Nc1cc(Nc2nc3c(c(-c4cn(C)c5ccc(F)cc45)n2)CSCC3)c(OC)cc1N(C)CCN(C)C	> 1.8
2. C=C(Cl)C(=O)Nc1cc(Nc2nc3c(c(-c4cn(C)c5ccccc45)n2)CS(=O)(=O)CC3)c(OC)cc1N(C)CCN(C)C	1.1
3. COc1cc(N(C)CCN(C)C)c(NC(=O)/C=C\C(C)C)cc1Nc1nc2c(c(-c3cn(C)c4ccccc34)n1)CSCC2	> 1.2
4. CCC/C=C\C(=O)Nc1cc(Nc2nc3c(c(-c4cn(C)c5ccccc45)n2)CS(=O)(=O)CC3)c(OC)cc1N(C)CCN(C)C	> 125
5. C=C(Cl)C(=O)Nc1cc(Nc2nc3c(c(-c4cn(C)c5ccccc45)n2)CSCC3)c(OC)cc1N(C)CCN(C)C	18.4
6. C=CC(=O)Nc1cc(Nc2nc3c(c(-c4cn(C)c5ccccc45)n2)CSCC3)c(OC)cc1N(C)CCN(C)C	14.6
7. CC/C=C\C(=O)Nc1cc(Nc2nc3c(c(-c4cn(C)c5ccccc45)n2)CSCC3)c(OC)cc1N(C)CCN(C)C	> 1.6
8. COc1cc(N(C)CCN(C)C)c(NC(=O)/C=C\C(C)C)cc1Nc1nc2c(c(-c3cn(C)c4ccc(F)cc34)n1)CSCC2	> 1.2

---

Test system: HeLa
Assay: Antiproliferative activity against human HeLa cells assessed as inhibition of cell growth after 72 hrs by MTT assay
Format: functional, cell-based
Conditions: read-out: pIC50 (converted)
# key: entry, value: IC50
Reported property: IC50 (nM)

1) CC/C=C\C(=O)Nc1cc(Nc2nc3c(c(-c4cn(C)c5ccc(F)cc45)n2)CSCC3)c(OC)cc1N(C)CCN(C)C	840
2) C=CC(=O)Nc1cc(Nc2nc3c(c(-c4cn(C)c5ccc(F)cc45)n2)CSCC3)c(OC)cc1N(C)CCN(C)C	728
3) C/C=C\C(=O)Nc1cc(Nc2nc3c(c(-c4cn(C)c5ccc(F)cc45)n2)CSCC3)c(OC)cc1N(C)CCN(C)C	275
4) COc1cc(N(C)CCN(C)C)c(NC(=O)C=C(C)C)cc1Nc1nc2c(c(-c3cn(C)c4ccc(F)cc34)n1)CSCC2	284
5) C/C=C\C(=O)Nc1cc(Nc2nc3c(c(-c4cn(C)c5ccccc45)n2)CS(=O)(=O)CC3)c(OC)cc1N(C)CCN(C)C	6010
6) C=C(Cl)C(=O)Nc1cc(Nc2nc3c(c(-c4cn(C)c5ccccc45)n2)CS(=O)(=O)CC3)c(OC)cc1N(C)CCN(C)C	205
7) C=CC(=O)Nc1cc(Nc2nc3c(c(-c4cn(C)c5ccccc45)n2)CSCC3)c(OC)cc1N(C)CCN(C)C	1300
8) C=C(Cl)C(=O)Nc1cc(Nc2nc3c(c(-c4cn(C)c5ccc(F)cc45)n2)CSCC3)c(OC)cc1N(C)CCN(C)C	982
9) COc1cc(N(C)CCN(C)C)c(NC(=O)C=C(C)C)cc1Nc1nc2c(c(-c3cn(C)c4ccccc34)n1)CSCC2	2360
10) C/C=C\C(=O)Nc1cc(Nc2nc3c(c(-c4cn(C)c5ccccc45)n2)CSCC3)c(OC)cc1N(C)CCN(C)C	1650
11) CC/C=C\C(=O)Nc1cc(Nc2nc3c(c(-c4cn(C)c5ccc(F)cc45)n2)CS(=O)(=O)CC3)c(OC)cc1N(C)CCN(C)C	7100
12) C=CC(=O)Nc1cc(Nc2nc3c(c(-c4cn(C)c5ccc(F)cc45)n2)CS(=O)(=O)CC3)c(OC)cc1N(C)CCN(C)C	175
13) COc1cc(N(C)CCN(C)C)c(NC(=O)C=C(C)C)cc1Nc1nc2c(c(-c3cn(C)c4ccccc34)n1)CS(=O)(=O)CC2	4520
14) COc1cc(N(C)CCN(C)C)c(NC(=O)/C=C\C(C)C)cc1Nc1nc2c(c(-c3cn(C)c4ccc(F)cc34)n1)CSCC2	1330
15) CC/C=C\C(=O)Nc1cc(Nc2nc3c(c(-c4cn(C)c5ccccc45)n2)CS(=O)(=O)CC3)c(OC)cc1N(C)CCN(C)C	5220
16) CCC/C=C\C(=O)Nc1cc(Nc2nc3c(c(-c4cn(C)c5ccccc45)n2)CSCC3)c(OC)cc1N(C)CCN(C)C	652
17) C=C(Cl)C(=O)Nc1cc(Nc2nc3c(c(-c4cn(C)c5ccc(F)cc45)n2)CS(=O)(=O)CC3)c(OC)cc1N(C)CCN(C)C	2930

---

Listed here: items and their measured IC50.
Test system: HeLa
Experiment: Antiproliferative activity against human HeLa cells assessed as inhibition of cell growth after 72 hrs by MTT assay
Assay type: functional, cell-based
Details: read-out: pIC50 (converted)
Reported property: IC50 (µM)

1. CCC/C=C\C(=O)Nc1cc(Nc2nc3c(c(-c4cn(C)c5ccc(F)cc45)n2)CSCC3)c(OC)cc1N(C)CCN(C)C	0.966
2. C=C(Cl)C(=O)Nc1cc(Nc2nc3c(c(-c4cn(C)c5ccccc45)n2)CSCC3)c(OC)cc1N(C)CCN(C)C	1.01
3. COc1cc(N(C)CCN(C)C)c(NC(=O)C=C(C)C)cc1Nc1nc2c(c(-c3cn(C)c4ccc(F)cc34)n1)CS(=O)(=O)CC2	5.92
4. CCC/C=C\C(=O)Nc1cc(Nc2nc3c(c(-c4cn(C)c5ccc(F)cc45)n2)CS(=O)(=O)CC3)c(OC)cc1N(C)CCN(C)C	2.33

---

System: HeLa
Test: Antiproliferative activity against human HeLa cells assessed as inhibition of cell growth after 72 hrs by MTT assay
Assay type: functional, cell-based
Settings: read-out: pIC50 (converted)
class 1 if IC50 is below 700 nM. class 0 if not; exact matches included in class 0.

1. CCC/C=C\C(=O)Nc1cc(Nc2nc3c(c(-c4cn(C)c5ccccc45)n2)CS(=O)(=O)CC3)c(OC)cc1N(C)CCN(C)C	class 1
2. CC/C=C\C(=O)Nc1cc(Nc2nc3c(c(-c4cn(C)c5ccccc45)n2)CSCC3)c(OC)cc1N(C)CCN(C)C	class 0
3. C=CC(=O)Nc1cc(Nc2nc3c(c(-c4cn(C)c5ccccc45)n2)CS(=O)(=O)CC3)c(OC)cc1N(C)CCN(C)C	class 1
4. C/C=C\C(=O)Nc1cc(Nc2nc3c(c(-c4cn(C)c5ccc(F)cc45)n2)CS(=O)(=O)CC3)c(OC)cc1N(C)CCN(C)C	class 0
5. COc1cc(N(C)CCN(C)C)c(NC(=O)/C=C\C(C)C)cc1Nc1nc2c(c(-c3cn(C)c4ccc(F)cc34)n1)CS(=O)(=O)CC2	class 1
6. COc1cc(N(C)CCN(C)C)c(NC(=O)/C=C\C(C)C)cc1Nc1nc2c(c(-c3cn(C)c4ccccc34)n1)CS(=O)(=O)CC2	class 0

---

Target: Epidermal growth factor receptor (Homo sapiens, UniProt P00533, L858R/T790M)
Sequence (P00533 25-1210 T790M/L858R limits assumed): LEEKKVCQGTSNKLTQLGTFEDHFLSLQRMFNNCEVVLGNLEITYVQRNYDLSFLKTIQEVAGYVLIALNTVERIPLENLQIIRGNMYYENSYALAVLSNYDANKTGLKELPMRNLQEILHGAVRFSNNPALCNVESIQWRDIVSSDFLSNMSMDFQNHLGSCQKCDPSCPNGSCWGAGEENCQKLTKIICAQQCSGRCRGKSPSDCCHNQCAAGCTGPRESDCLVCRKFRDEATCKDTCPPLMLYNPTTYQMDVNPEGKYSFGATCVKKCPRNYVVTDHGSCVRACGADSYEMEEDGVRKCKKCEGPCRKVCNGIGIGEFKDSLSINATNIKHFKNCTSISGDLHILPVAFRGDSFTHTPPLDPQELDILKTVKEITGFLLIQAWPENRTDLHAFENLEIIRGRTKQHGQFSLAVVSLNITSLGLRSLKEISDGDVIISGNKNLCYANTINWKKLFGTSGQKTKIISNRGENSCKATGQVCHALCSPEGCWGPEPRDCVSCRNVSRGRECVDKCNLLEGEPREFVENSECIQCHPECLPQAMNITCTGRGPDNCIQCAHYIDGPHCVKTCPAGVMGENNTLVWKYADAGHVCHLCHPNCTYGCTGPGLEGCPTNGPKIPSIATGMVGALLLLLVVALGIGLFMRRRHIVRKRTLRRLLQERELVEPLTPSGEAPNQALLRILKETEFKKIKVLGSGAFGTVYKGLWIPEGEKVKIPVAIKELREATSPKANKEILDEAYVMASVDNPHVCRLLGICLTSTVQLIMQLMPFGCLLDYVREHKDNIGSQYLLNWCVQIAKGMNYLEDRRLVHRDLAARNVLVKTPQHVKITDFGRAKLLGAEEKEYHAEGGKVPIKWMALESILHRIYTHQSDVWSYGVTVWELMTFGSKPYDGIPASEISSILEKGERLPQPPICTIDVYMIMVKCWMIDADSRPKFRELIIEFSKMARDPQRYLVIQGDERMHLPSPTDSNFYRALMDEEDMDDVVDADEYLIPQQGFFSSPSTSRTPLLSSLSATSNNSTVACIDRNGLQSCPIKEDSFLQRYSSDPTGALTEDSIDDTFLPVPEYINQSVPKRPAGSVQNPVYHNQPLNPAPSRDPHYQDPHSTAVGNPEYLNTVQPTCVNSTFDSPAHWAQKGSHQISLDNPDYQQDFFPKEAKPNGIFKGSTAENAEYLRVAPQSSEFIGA
Test: Inhibition of EGFR T790M/L858R double mutant (unknown origin) using biotin as substrate in presence of ATP by mobility shift assay based ELISA
Each entry below lists one item and its recorded IC50 value.
Reported property: IC50 (nM)

1. C=CC(=O)Nc1cc(Nc2nc3c(c(-c4cn(C)c5ccccc45)n2)CSCC3)c(OC)cc1N(C)CCN(C)C	35
2. C=C(Cl)C(=O)Nc1cc(Nc2nc3c(c(-c4cn(C)c5ccccc45)n2)CSCC3)c(OC)cc1N(C)CCN(C)C	31
3. CC/C=C\C(=O)Nc1cc(Nc2nc3c(c(-c4cn(C)c5ccccc45)n2)CSCC3)c(OC)cc1N(C)CCN(C)C	1250
4. CCC/C=C\C(=O)Nc1cc(Nc2nc3c(c(-c4cn(C)c5ccccc45)n2)CS(=O)(=O)CC3)c(OC)cc1N(C)CCN(C)C	16
5. C=C(Cl)C(=O)Nc1cc(Nc2nc3c(c(-c4cn(C)c5ccccc45)n2)CS(=O)(=O)CC3)c(OC)cc1N(C)CCN(C)C	990
6. CC/C=C\C(=O)Nc1cc(Nc2nc3c(c(-c4cn(C)c5ccc(F)cc45)n2)CSCC3)c(OC)cc1N(C)CCN(C)C	1130
7. COc1cc(N(C)CCN(C)C)c(NC(=O)/C=C\C(C)C)cc1Nc1nc2c(c(-c3cn(C)c4ccc(F)cc34)n1)CSCC2	1690
8. COc1cc(N(C)CCN(C)C)c(NC(=O)/C=C\C(C)C)cc1Nc1nc2c(c(-c3cn(C)c4ccccc34)n1)CSCC2	1620
